# assay: Plasma protein binding
# Type: in vitro ADME
experimental_endpoint: fraction unbound

Inquiry: Fill in reported fraction unbound for this entry: `CC(C)(CO)c1cc(NC(=O)N2CCCN2c2ccc(C(F)(F)F)cc2)no1`
Reply text: 0.0631

---

# assay: Plasma and brain pharmacokinetics in mice
# Format: in vivo
# test_conditions: male, C57BL/6, mouse, in vivo, 10 mg/kg; Via oral administration, 3 mice, at 24 h; read-out: Brain to plasma ratio
experimental_endpoint: Kp at 24 h
Lab note: record just the number, no unit beside it.

Inquiry: Fill in reported Kp at 24 h for this entry: CC(C)(CO)c1cc(NC(=O)N2CCCN2c2ccc(C(F)(F)F)cc2)no1 [Compound 22]
Reply text: 0.97

---

So I've got a bunch of compounds here, and I need their melting point values.

Inquiry: Fill in reported melting point for this entry: `Cc1cc2c(nc(-c3ccccc3Cl)n2C2CCOCC2)c(N2CCN(C)CC2)n1`
Reply text: 248 to 252 °C

Inquiry: Fill in reported melting point for this entry: `CC(C)(CO)c1cc(NC(=O)N2CCCN2c2ccc(C(F)(F)F)cc2)no1`
Reply text: 142 to 146 °C

Inquiry: Fill in reported melting point for this entry: `CC(C)(C)c1cc(NC(=O)N2CCCN2c2cc(F)cc(F)c2)on1`
Reply text: 181 to 185 °C

Inquiry: Fill in reported melting point for this entry: `CC(C)(C)c1cc(NC(=O)N2CCC(=O)N2c2ccc(C(F)(F)F)cc2)on1`
Reply text: 186 to 190 °C

Inquiry: Fill in reported melting point for this entry: `CC(C)(C)c1cc(NC(=O)N2CCCN2)on1`
Reply text: 175 to 179 °C

Inquiry: Fill in reported melting point for this entry: CC(C)(C)c1cc(NC(=O)N2CCCC2c2ccc(C(F)(F)F)cc2)no1 (stereo not shown)
Reply text: 175 to 179 °C

Inquiry: Fill in reported melting point for this entry: `CC(C)(C)c1cc(NC(=O)N2CCCN2c2ccc(C(F)(F)F)cn2)on1`
Reply text: 184 to 188 °C

Inquiry: Fill in reported melting point for this entry: `CC(C)(C)c1cc(NC(=O)N2CCCN2c2ccc(C(F)(F)F)cc2)on1`
Reply text: 211 to 215 °C

Inquiry: Fill in reported melting point for this entry: `CC(C)(C)c1cc(NC(=O)N2CCCN2c2ccc(F)cc2)on1`
Reply text: 190 to 194 °C

Inquiry: Fill in reported melting point for this entry: `CN1CCN(c2nccc3c2nc(-c2ccccc2Cl)n3C2CCOCC2)CC1`
Reply text: 231 to 235 °C

---

# target_of_assay: human CB2R (Homo sapiens)
# assay: cAMP Hunter eXpress GPCR assay, human CB2: inhibition of forskolin-stimulated cAMP in CHO cells
# Assay type: cell-based
# Design: host or cells: CHO cells
# test_conditions: cAMP assay, CP-55940 as full agonist control
experimental_endpoint: CB2 agonist character (in words)

compound_structure=CC(C)(CO)c1cc(NC(=O)N2CCCN2c2ccc(C(F)(F)F)cc2)no1 experimental_endpoint="CB2 agonist character (in words)" result="potent agonists of CB2"
compound_structure=CC(C)(CO)c1cc(NC(=O)N2CCCN2c2ccc(C(F)(F)F)cn2)on1 experimental_endpoint="CB2 agonist character (in words)" result="potent agonists of CB2"

---

# target_of_assay: GPR55 (Homo sapiens, UniProt Q9Y2T6)
# Sequence (Q9Y2T6 whole entry, species assumed): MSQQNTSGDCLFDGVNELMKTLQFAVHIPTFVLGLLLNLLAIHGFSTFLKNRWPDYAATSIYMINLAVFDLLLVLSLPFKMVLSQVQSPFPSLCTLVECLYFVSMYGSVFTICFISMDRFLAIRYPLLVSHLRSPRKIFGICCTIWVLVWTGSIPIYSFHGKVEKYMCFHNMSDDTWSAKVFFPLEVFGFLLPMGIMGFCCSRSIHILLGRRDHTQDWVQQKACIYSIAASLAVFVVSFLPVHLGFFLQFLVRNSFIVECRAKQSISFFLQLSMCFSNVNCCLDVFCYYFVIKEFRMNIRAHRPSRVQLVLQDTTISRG
# assay: Off-target activity GPR55 (agonist, antagonist, PAM modes)
experimental_endpoint: IC50

Inquiry: Fill in reported IC50 for this entry: CC(C)(CO)c1cc(NC(=O)N2CCCN2c2ccc(C(F)(F)F)cc2)no1 [Compound 22]
Reply text: > 10 µM

---

# target_of_assay: GPR55 (Homo sapiens, UniProt Q9Y2T6)
# assay: Off-target activity GPR55 (agonist, antagonist, PAM modes)
pEC50: −log10 of the molar value.
experimental_endpoint: pEC50

Inquiry: Provide GPR55 (Homo sapiens, UniProt Q9Y2T6) pEC50 reading for CC(C)(CO)c1cc(NC(=O)N2CCCN2c2ccc(C(F)(F)F)cc2)no1 [Compound 22] .
Reply text: < 5.00

---

# assay: Plasma and brain pharmacokinetics in mice
# Assay type: in vivo
# test_conditions: male, C57BL/6, mouse, plasma, 10 mg/kg; Oral bioavailability
experimental_endpoint: bioavailability (%)
Return type: number; implicit unit %.

Inquiry: Fill in reported bioavailability for this entry: `CC(C)(CO)c1cc(NC(=O)N2CCCN2c2ccc(C(F)(F)F)cc2)no1`
Reply text: 100

---

# assay: Aqueous solubility
# Type: physicochemical
# test_conditions: aqueous medium (not further specified)
experimental_endpoint: solubility (µg/mL)
Return type: number; implicit unit µg/mL.

Inquiry: Fill in reported solubility for this entry: `CC(C)(CO)c1cc(NC(=O)N2CCCN2c2ccc(C(F)(F)F)cc2)no1`
Reply text: 17.4

---

# target_of_assay: UniProt:Q8TDV5
# assay: Off-target activity GPR119 (agonist, antagonist, PAM modes)
experimental_endpoint: IC50

Inquiry: Provide UniProt:Q8TDV5 IC50 reading for `CC(C)(CO)c1cc(NC(=O)N2CCCN2c2ccc(C(F)(F)F)cc2)no1` .
Reply text: > 10 µM

---

# target_of_assay: UniProtKB P34972
# assay: PathHunter β-Arrestin assay, beta-arrestin recruitment
# Format: cell-based
experimental_endpoint: EC50 (nM)
Return type: number; implicit unit nM.

Inquiry: Fill in reported EC50 for this entry: CC(C)(CO)c1cc(NC(=O)N2CCCN2c2ccc(C(F)(F)F)cc2)no1 [Compound 22]
Reply text: 578

---

# target_of_assay: GPR119 (Homo sapiens)
# Sequence (Q8TDV5 1-335): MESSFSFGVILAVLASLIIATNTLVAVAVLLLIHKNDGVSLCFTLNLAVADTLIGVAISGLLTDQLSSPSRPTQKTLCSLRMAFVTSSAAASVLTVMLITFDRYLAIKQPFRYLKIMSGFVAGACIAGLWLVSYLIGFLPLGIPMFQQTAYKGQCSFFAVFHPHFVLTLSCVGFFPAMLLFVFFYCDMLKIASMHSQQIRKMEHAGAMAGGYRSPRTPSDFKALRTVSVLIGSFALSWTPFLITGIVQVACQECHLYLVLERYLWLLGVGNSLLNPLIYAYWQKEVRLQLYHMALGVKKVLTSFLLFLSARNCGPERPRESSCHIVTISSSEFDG
# assay: Off-target activity GPR119 (agonist, antagonist, PAM modes)
pEC50: −log10 of the molar value.
experimental_endpoint: pEC50

Inquiry: Fill in reported pEC50 for this entry: `CC(C)(CO)c1cc(NC(=O)N2CCCN2c2ccc(C(F)(F)F)cc2)no1`
Reply text: < 5.00

---

# assay: Mouse hepatocytes metabolic stability
# Assay type: in vitro ADME
# test_conditions: read-out: Mouse hepatocytes metabolic stability t ½
experimental_endpoint: half-life

Inquiry: Fill in reported half-life for this entry: CC(C)(CO)c1cc(NC(=O)N2CCCN2c2ccc(C(F)(F)F)cc2)no1 [Compound 22]
Reply text: > 2 h

---

# target_of_assay: hERG (Homo sapiens)
# Sequence (Q12809 whole entry): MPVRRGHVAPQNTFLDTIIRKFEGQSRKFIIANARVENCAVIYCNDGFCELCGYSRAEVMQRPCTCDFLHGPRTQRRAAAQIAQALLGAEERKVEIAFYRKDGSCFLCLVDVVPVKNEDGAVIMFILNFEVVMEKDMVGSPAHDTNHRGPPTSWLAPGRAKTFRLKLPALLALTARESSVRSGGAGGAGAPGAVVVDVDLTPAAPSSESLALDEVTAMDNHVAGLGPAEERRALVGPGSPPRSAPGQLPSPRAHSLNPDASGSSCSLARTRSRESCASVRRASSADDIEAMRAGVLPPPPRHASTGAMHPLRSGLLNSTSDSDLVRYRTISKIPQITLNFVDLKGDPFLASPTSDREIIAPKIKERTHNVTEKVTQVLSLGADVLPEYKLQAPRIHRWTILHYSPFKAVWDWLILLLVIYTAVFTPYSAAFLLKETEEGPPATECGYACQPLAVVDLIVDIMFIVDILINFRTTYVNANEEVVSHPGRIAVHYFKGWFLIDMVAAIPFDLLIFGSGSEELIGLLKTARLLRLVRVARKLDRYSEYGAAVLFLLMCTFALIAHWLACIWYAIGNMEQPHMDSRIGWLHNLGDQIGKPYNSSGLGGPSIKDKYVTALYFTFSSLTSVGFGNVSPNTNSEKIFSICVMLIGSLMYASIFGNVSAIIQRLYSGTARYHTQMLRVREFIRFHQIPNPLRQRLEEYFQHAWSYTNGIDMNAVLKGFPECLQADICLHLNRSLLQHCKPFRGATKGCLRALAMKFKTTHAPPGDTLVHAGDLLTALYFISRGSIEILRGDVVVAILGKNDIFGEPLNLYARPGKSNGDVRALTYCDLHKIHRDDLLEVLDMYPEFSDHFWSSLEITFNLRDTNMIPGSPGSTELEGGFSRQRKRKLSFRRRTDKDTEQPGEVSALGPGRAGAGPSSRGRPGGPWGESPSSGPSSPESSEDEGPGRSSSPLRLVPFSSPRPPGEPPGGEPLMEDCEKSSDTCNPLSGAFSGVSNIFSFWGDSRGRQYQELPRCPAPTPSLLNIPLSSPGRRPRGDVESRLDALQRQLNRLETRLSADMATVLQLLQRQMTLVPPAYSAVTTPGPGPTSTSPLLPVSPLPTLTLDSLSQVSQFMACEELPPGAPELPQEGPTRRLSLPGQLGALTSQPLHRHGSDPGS
pIC50: −log10 of the molar value.
experimental_endpoint: pIC50

Inquiry: Fill in reported pIC50 for this entry: `CC(C)(CO)c1cc(NC(=O)N2CCCN2c2ccc(C(F)(F)F)cc2)no1`
Reply text: < 5.00

---

# target_of_assay: GPR18 (Homo sapiens, UniProt Q14330)
# Sequence (Q14330 whole entry, species assumed): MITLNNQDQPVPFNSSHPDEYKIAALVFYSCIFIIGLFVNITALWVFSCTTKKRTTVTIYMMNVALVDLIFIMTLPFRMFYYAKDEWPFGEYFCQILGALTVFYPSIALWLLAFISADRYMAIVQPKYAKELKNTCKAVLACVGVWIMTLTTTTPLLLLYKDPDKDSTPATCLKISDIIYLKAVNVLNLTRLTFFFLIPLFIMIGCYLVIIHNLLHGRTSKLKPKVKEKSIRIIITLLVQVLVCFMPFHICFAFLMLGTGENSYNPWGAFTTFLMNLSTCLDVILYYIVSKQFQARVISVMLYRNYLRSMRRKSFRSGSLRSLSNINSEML
# assay: Off-target activity GPR18 (agonist, antagonist, PAM modes)
pIC50: −log10 of the molar value.
experimental_endpoint: pIC50

Inquiry: Fill in reported pIC50 for this entry: `CC(C)(CO)c1cc(NC(=O)N2CCCN2c2ccc(C(F)(F)F)cc2)no1`
Reply text: < 5.00

---

# target_of_assay: human CB2R (Homo sapiens, UniProt P34972)
# Sequence (P34972 whole entry): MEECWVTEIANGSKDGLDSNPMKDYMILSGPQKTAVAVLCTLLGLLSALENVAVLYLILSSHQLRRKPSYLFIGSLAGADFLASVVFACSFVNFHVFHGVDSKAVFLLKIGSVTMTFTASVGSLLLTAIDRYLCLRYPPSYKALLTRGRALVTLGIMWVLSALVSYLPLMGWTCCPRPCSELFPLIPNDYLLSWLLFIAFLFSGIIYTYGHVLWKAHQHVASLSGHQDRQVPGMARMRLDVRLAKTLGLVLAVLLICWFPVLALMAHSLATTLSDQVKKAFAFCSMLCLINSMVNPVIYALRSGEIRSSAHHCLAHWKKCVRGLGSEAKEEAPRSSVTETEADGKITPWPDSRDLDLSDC
# assay: cAMP Hunter eXpress GPCR assay, human CB2: inhibition of forskolin-stimulated cAMP in CHO cells
# Assay type: cell-based
# Parameters: host or cells: CHO cells
# test_conditions: Activity in primary assay: CB2 EC50, Table 6; hCB2 cAMP, agonist mode, mean of n = 3-5 expts on ≥2 batches
experimental_endpoint: EC50
Remember to put the unit after the number in your answer.

Inquiry: Fill in reported EC50 for this entry: `CC(C)(CO)c1cc(NC(=O)N2CCCN2c2ccc(C(F)(F)F)cc2)no1`
Reply text: 67 nM

---

# target_of_assay: UniProt P34972
# assay: cAMP Hunter eXpress GPCR assay, human CB2: inhibition of forskolin-stimulated cAMP in CHO cells
# Format: cell-based
# Parameters: host or cells: CHO cells
# test_conditions: Table 3; cAMP assay, 25 μM forskolin, 35 minutes; read-out: CB2 EC50
experimental_endpoint: pEC50
By convention, pEC50 is the negative base-10 log of a molar concentration.

Inquiry: Fill in reported pEC50 for this entry: CC(C)(C)c1cc(NC(=O)N2CCCN2c2ccc(C(F)(F)F)cc2)on1 [Compound 11]
Reply text: 7.12
